Attribute: EC50
Target: human TREM2 (Homo sapiens)
Construct: expressed in transfected cells; host or cells: HEK293T (HEK293T-hTREM2 cells)
Sequence (Q9NZC2 19-230): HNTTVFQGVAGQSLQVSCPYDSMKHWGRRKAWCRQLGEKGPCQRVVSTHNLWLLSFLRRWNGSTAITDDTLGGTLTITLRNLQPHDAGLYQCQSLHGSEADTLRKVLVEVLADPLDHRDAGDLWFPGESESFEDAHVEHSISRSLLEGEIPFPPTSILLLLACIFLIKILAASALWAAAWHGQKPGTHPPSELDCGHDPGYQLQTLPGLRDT
Sequence (O43914 22-113 partner): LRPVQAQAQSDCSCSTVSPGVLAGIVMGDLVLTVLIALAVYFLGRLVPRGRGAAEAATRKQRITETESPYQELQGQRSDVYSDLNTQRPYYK
Experiment: Cellular phosphorylation of Syk (AlphaLisa) in HEK293T-hTREM2 cells, TREM2 agonist potency
Type: cell-based
Details: HEK293 cells expressing human TREM2 and DAP12; pSyk AlphaLisa; Table D
Method: In Vitro Measurement of Triggering Receptor Expressed on Myeloid Cells 2 Activity Using Cellular Phosphorylation of Spleen Tyrosine Kinase (“Syk”) Assays Measurement of TREM2 agonist potency was done using a HEK cell line expressing human TREM2 and DAP12 (HEK293T-hTREM2 cells). Binding of small molecules to, and activation of, TREM2 increases the phosphorylation of Syk. The resultant levels of Syk phosphorylation are measured using a commercial AlphaLisa reagent kit. […]

Some solved cases for reference:
[[record]]
compound = "O=c1c2nc(NCCc3ccccc3)sc2c(-c2ccc(Cl)cc2)nn1CCc1ccccc1 [compound 37]"
assay_readout = "EC50"
result = "3 to 100 µM"

[[record]]
compound = "Cc1ccc2c(-c3ccc(Cl)cc3)nn(-c3ccc(OC(F)(F)F)cc3)c(=O)c2n1 [compound 23]"
assay_readout = "EC50"
result = "0.5 to 3 µM"

[[record]]
compound = "CC(=O)N1CCC(n2nc(-c3ccc(Cl)cc3)c3cc(Cl)c(Cl)cc3c2=O)CC1 [compound 13]"
assay_readout = "EC50"
result = "3 to 100 µM"


Sample Cc1cc2c(-c3ccc(Cl)cc3)nn(-c3ccnc(C4CCC4)c3)c(=O)c2cc1C [compound 15] — what was its EC50? 0.5 to 3 µM

Sample Cc1cc2c(-c3ccc(Cl)cc3)nn(-c3ccnc(C4COC4)c3)c(=O)c2cc1C [compound 14] — what was its EC50? 0.5 to 3 µM

Sample Cc1cc2c(-c3ccc(Cl)cc3)nn(-c3ccc4c(c3)OCO4)c(=O)c2cc1C [compound 19] — what was its EC50? 3 to 100 µM

Sample Nc1nc2c(=O)n(CCc3ccccc3)nc(-c3ccc(Cl)cc3)c2s1 [compound 33] — what was its EC50? 3 to 100 µM

Sample Cc1cc2c(-c3ccc(Cl)cc3)nn(-c3ccnc(C4CCN(C(=O)OC(C)(C)C)CC4)c3)c(=O)c2cc1C [compound 22] — what was its EC50? 0.5 to 3 µM

* * *

Target: human TREM2 (Homo sapiens)
Construct: expressed in transfected cells; host or cells: HEK293T (HEK293T-hTREM2 cells)
Assay: Cellular phosphorylation of Syk (AlphaLisa) in HEK293T-hTREM2 cells, TREM2 agonist potency
Type: cell-based
Conditions: HEK293 cells expressing human TREM2 and DAP12; pSyk AlphaLisa; Table D-2
Experimental: In Vitro Measurement of Triggering Receptor Expressed on Myeloid Cells 2 Activity Using Cellular Phosphorylation of Spleen Tyrosine Kinase (“Syk”) Assays Measurement of TREM2 agonist potency was done using a HEK cell line expressing human TREM2 and DAP12 (HEK293T-hTREM2 cells). Binding of small molecules to, and activation of, TREM2 increases the phosphorylation of Syk. The resultant levels of Syk phosphorylation are measured using a commercial AlphaLisa reagent kit. […]
assay.readout: EC50

Some solved cases for reference:
[[record]]
compound = "Cc1nc2c(-c3ccc(C(F)(F)F)cc3F)cn([C@H]3CCO[C@@H](c4cnn(C5CC5)c4)C3)c(=O)c2nc1C"
result = "0.5 to 3 µM"

[[record]]
compound = "Cc1cc2c(-c3ccc(Cl)cc3)nn(-c3ccnc(NC4COC4)c3)c(=O)c2nc1C"
result = "0.5 to 3 µM"


Sample Cc1cc2c(-c3ccc(Cl)cc3)cn(-c3ccc(OC(F)(F)F)cc3)c(=O)c2nc1C — what was its EC50? 0.5 to 3 µM

Sample Cc1cc2c(-c3ccc(Cl)cc3)nn(-c3ccnc(NC4CC(F)(F)C4)c3)c(=O)c2nc1C — what was its EC50? 0.5 to 3 µM

Sample Cc1cc2c(-c3ccc(Cl)cc3)nn(-c3ccnc(Nc4cnn(C5CC5)c4)c3)c(=O)c2nc1C — what was its EC50? 0.05 to 0.5 µM

Sample Cc1cc2c(-c3ccc(Cl)cc3)nn(-c3ccnc(C4CC(OCc5ccccc5)C4)c3)c(=O)c2cc1C (stereo not drawn) — what was its EC50? 0.5 to 3 µM

Sample Cc1cc2c(-c3ccc(Cl)cc3)nn(-c3ccnc(C4COC4)c3)c(=O)c2nc1C — what was its EC50? 3 to 100 µM

Sample Cc1cc2c(-c3ccc(Cl)c(Cl)c3)nn(-c3ccnc(C4COC4)c3)c(=O)c2cc1C — what was its EC50? 0.5 to 3 µM
